ASSAY NOTES: STM_H9_NormalizedViability: Cytotoxicity Assessment at 120 hours in the Stemina devTOX quickPredict H9 human embryonic stem cell (hESC)-based Assay (AID 2283784)
Inconclusive results are not listed. Calls of active or inactive are those of the source. How the source made its calls: active means hit-call score of the fitted dose curve at least 0.9, where 1 is the maximum; inconclusive means response in the unintended direction; inactive means score below 0.9.
A correct response names exactly one class from active, inactive

Query: recorded result category for O=C(Oc1ccccc1)c1cccc(C(=O)Oc2ccccc2)c1 in this test inactive

Query: recorded result category for CCN(CC)CCOc1ccc(C(=C(Cl)c2ccccc2)c2ccccc2)cc1 in this test active

Query: recorded result category for CC(COCC(C)OC(=O)c1ccccc1)OC(=O)c1ccccc1 (stereo unspecified) in this test inactive

Query: recorded result category for NC(=Nc1ccccc1)Nc1ccccc1 in this test inactive

Query: recorded result category for Nc1nc(=S)c2[nH]cnc2[nH]1 in this test active

Query: recorded result category for CCCCCCCCCC[N+](C)(C)[O-] in this test inactive

Query: recorded result category for Cc1cc(Cc2ccc(N)c(C)c2)ccc1N in this test inactive

Query: recorded result category for O=C(O)c1cccnc1 in this test inactive

Query: recorded result category for COC(=O)[C@H]1[C@H]2C[C@@H]3c4[nH]c5cc(OC)ccc5c4CCN3C[C@H]2C[C@@H](OC(=O)c2cc(OC)c(OC)c(OC)c2)[C@@H]1OC in this test inactive

Query: recorded result category for CCC(C)N(C)C(=O)c1cc2ccccc2c(-c2ccccc2Cl)n1 (stereo unspecified) in this test inactive

Query: recorded result category for CC(=O)CC(c1ccccc1)c1c(O)c2ccccc2oc1=O (stereo unspecified) in this test inactive

----------
TARGET SYSTEM: human Thyroid Receptor alpha (THRa1), THRA (gene 7067) (UniProt P10827)
Sequence (P10827 whole entry, looked up): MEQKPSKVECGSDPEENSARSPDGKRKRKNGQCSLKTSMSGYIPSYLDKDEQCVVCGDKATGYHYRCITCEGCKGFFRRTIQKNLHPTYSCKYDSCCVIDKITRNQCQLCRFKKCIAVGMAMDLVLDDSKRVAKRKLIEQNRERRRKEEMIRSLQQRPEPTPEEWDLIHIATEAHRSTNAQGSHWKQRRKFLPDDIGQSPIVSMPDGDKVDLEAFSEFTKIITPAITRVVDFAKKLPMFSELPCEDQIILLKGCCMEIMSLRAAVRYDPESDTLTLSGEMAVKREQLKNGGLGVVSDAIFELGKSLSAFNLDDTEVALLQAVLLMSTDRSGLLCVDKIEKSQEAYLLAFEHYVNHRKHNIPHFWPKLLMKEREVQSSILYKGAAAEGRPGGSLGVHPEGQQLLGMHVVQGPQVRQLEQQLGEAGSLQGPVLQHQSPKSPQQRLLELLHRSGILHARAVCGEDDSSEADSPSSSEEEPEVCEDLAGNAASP
ASSAY NOTES: ATG_THRa1_TRANS: Attagene TRANS-FACTORIAL HepG2 Assay for human Thyroid Receptor alpha (THRa1) (AID 2283014)
Records with an inconclusive call do not appear. The source made the active and inactive calls. Rule for the calls: active = hit-call score of the fitted dose curve at least 0.9, where 1 is the maximum; inconclusive = response in the unintended direction; inactive = score below 0.9.
A correct response names exactly one class from true (1) (active), false (0) (inactive)

Query: recorded result category for O=[Si]=O in this test false (0)

Query: recorded result category for CC(N)=O in this test false (0)

Query: recorded result category for N[C@@H](Cc1c[nH]c2ccccc12)C(=O)O in this test false (0)

Query: recorded result category for C/C=C/C=C/C(=O)O in this test false (0)

Query: recorded result category for CC(C)(O)c1ccc(CNC(=O)c2cccnc2Oc2ccc(F)cc2)cc1 in this test false (0)

Query: recorded result category for O=C1CCCCC1 in this test true (1)

Query: recorded result category for COC(=O)[C@H]1[C@H]2C[C@@H]3c4[nH]c5cc(OC)ccc5c4CCN3C[C@H]2C[C@@H](OC(=O)c2cc(OC)c(OC)c(OC)c2)[C@@H]1OC in this test false (0)

Query: recorded result category for CCCCCCCCCCCCCCCCO in this test false (0)

Query: recorded result category for O=C1c2c(O)cccc2Cc2cccc(O)c21 in this test false (0)

Query: recorded result category for O=C(O)c1cccnc1 in this test false (0)

Query: recorded result category for c1ccc2occc2c1 in this test false (0)

Query: recorded result category for Nc1nc(=S)c2[nH]cnc2[nH]1 in this test false (0)

Query: recorded result category for CN(C)C(=O)NC1(c2ccccc2)CCN(CCC[C@]2(c3ccc(Cl)c(Cl)c3)CCCN(C(=O)c3ccccc3)C2)CC1 in this test false (0)

Query: recorded result category for CCCCCCC(CCCCCCCCCCC(=O)OCC(COC(C)=O)OC(C)=O)OC(C)=O (centres undefined) in this test false (0)

Query: recorded result category for CC(=O)OCC(COC(C)=O)OC(C)=O in this test false (0)

Query: recorded result category for O=C1O[C@H]([C@H](O)CO)C(O)=C1O in this test false (0)

Query: recorded result category for CCN(CC)CCOc1ccc(C(=C(Cl)c2ccccc2)c2ccccc2)cc1 in this test false (0)

Query: recorded result category for O=C(NS(=O)(=O)/C=C/c1cccs1)c1ccc(F)cc1Br in this test false (0)

Query: recorded result category for CC(C)COC(=O)CCCCC(=O)OCC(C)C in this test false (0)

Query: recorded result category for CC(=O)O in this test false (0)

Query: recorded result category for CCCCCCCC(=O)OC in this test false (0)

Query: recorded result category for CC1=C(C)S(=O)(=O)CCS1(=O)=O in this test false (0)

Query: recorded result category for O=C(Oc1ccccc1)c1cccc(C(=O)Oc2ccccc2)c1 in this test false (0)

Query: recorded result category for CCCCOC(=O)CCCCC(=O)OCCCC in this test false (0)
